Reference source for all entries: patent US20220177508A1

I'd appreciate it if you could supply MIC values for the items below.
# System: K. pneumoniae MP-648
# RUN DESCRIPTION: Broth dilution MIC determination (CLSI), K. pneumoniae MP-648
# Type: cell-based
# RECORDED CONDITIONS: Klebsiella pneumoniae, MP648; strain MP-648, broth dilution

Below are worked cases with known answers.
| COMPOUND | MIC |
| --- | --- |
| CO[C@]1(C)C[C@@H](C)CN(C)[C@H](C2CN(C(=O)CCCN(C)C)C2)COC(=O)C(C)(C)C(=O)[C@H](C)[C@H]1O[C@@H]1O[C@H](C)C[C@H](N(C)C)[C@H]1O [Compound 139] | > 32 µg/mL |
| CO[C@]1(C)C[C@@H](C)CN(C)[C@H](C2CN(C(=O)[C@@H]3CCN(CC4CC4)C3)C2)COC(=O)C(C)(C)C(=O)[C@H](C)[C@H]1O[C@@H]1O[C@H](C)C[C@H](N(C)C)[C@H]1O [Compound 145] | 4 to 32 µg/mL |
| CO[C@]1(C)C[C@@H](C)CN(C)[C@H](C2CN(CCC(C)C)C2)COC(=O)C(C)(C)C(=O)[C@H](C)[C@H]1O[C@@H]1O[C@H](C)C[C@H](N(C)C)[C@H]1O [Compound 51] | 4 to 32 µg/mL |
| CO[C@]1(C)C[C@@H](C)CN(C)[C@H](C2CN(C(=O)[C@@H]3CCNC3)C2)COC(=O)C(C)(C)C(=O)[C@H](C)[C@H]1O[C@@H]1O[C@H](C)C[C@H](N(C)C)[C@H]1O [Compound 22] | > 32 µg/mL |
| CO[C@]1(C)C[C@@H](C)CN(C)[C@H]([C@H]2C[C@H](N(C)CC3CC3)C2)COC(=O)C(C)(C)C(=O)[C@H](C)[C@H]1O[C@@H]1O[C@H](C)C[C@H](N(C)C)[C@H]1O [Compound 24] | < 4 µg/mL |
| CO[C@]1(C)C[C@@H](C)CN(C)[C@H](C2CN(CC3CCCO3)C2)COC(=O)C(C)(C)C(=O)[C@H](C)[C@H]1O[C@@H]1O[C@H](C)C[C@H](N(C)C)[C@H]1O (stereo partly shown) [Compound 164] | 4 to 32 µg/mL |
| COCC(C)N1CCC([C@H]2COC(=O)C(C)(C)C(=O)[C@H](C)[C@@H](O[C@@H]3O[C@H](C)C[C@H](N(C)C)[C@H]3O)[C@](C)(OC)C[C@@H](C)CN2C)CC1 (stereo partly shown) [Compound 124] | 4 to 32 µg/mL |
| CO[C@]1(C)C[C@@H](C)CN(C)[C@@H](C2(CCN(C)C(C)=O)CC2)COC(=O)C(C)(C)C(=O)[C@H](C)[C@H]1O[C@@H]1O[C@H](C)C[C@H](N(C)C)[C@H]1O [Compound 197] | > 32 µg/mL |

Lab note: each compound below needs its MIC filled in.
1. CO[C@]1(C)C[C@@H](C)CN(C)[C@H](C2CN(C(=O)CCN(C)C)C2)COC(=O)C(C)(C)C(=O)[C@H](C)[C@H]1O[C@@H]1O[C@H](C)C[C@H](N(C)C)[C@H]1O [Compound 50]
2. CO[C@]1(C)C[C@@H](C)CN(C)[C@H](C2CN(C(=O)CCN(C)CC(C)C)C2)COC(=O)C(C)(C)C(=O)[C@H](C)[C@H]1O[C@@H]1O[C@H](C)C[C@H](N(C)C)[C@H]1O [Compound 125]
3. CO[C@]1(C)C[C@@H](C)CN(C)[C@H](C2CN(C(=O)CCCN(C)CC3CCC3)C2)COC(=O)C(C)(C)C(=O)[C@H](C)[C@H]1O[C@@H]1O[C@H](C)C[C@H](N(C)C)[C@H]1O [Compound 156]
4. COCC(C)N1CC([C@@H]2COC(=O)C(C)(C)C(=O)[C@H](C)[C@@H](O[C@@H]3O[C@H](C)C[C@H](N(C)C)[C@H]3O)[C@](C)(OC)C[C@@H](C)CN2C)C1 (stereo partly shown) [Compound 32]
5. CO[C@]1(C)C[C@@H](C)CN(C)[C@H](C2CN(CC3CC3)C2)COC(=O)C(C)(C)C(=O)[C@H](C)[C@H]1O[C@@H]1O[C@H](C)C[C@H](N(C)C)[C@H]1O [Compound 37]
6. CCN(C)[C@H]1C[C@H]([C@@H]2COC(=O)C(C)(C)C(=O)[C@H](C)[C@@H](O[C@@H]3O[C@H](C)C[C@H](N(C)C)[C@H]3O)[C@](C)(OC)C[C@@H](C)CN2C)C1 [Compound 71]

RESULT:
4 to 32 µg/mL
4 to 32 µg/mL
4 to 32 µg/mL
4 to 32 µg/mL
4 to 32 µg/mL
< 4 µg/mL

Give me MIC for each of these compounds, listed below.
1. CO[C@]1(C)C[C@@H](C)CN(C)[C@H](C2CN(C(=O)[C@H]3CCN(CC4CC4)C3)C2)COC(=O)C(C)(C)C(=O)[C@H](C)[C@H]1O[C@@H]1O[C@H](C)C[C@H](N(C)C)[C@H]1O [Compound 126]
2. CO[C@]1(C)C[C@@H](C)CN(C)[C@H](C2CN(C(=O)CCCN(C)CC3CC3)C2)COC(=O)C(C)(C)C(=O)[C@H](C)[C@H]1O[C@@H]1O[C@H](C)C[C@H](N(C)C)[C@H]1O [Compound 61]

RESULT:
4 to 32 µg/mL
> 32 µg/mL

* * *

Field: MIC. Provide a value for each of the molecules that follow.
# System: S. aureus MP-12
# RUN DESCRIPTION: Broth dilution MIC determination (CLSI), S. aureus MP-12
# Assay type: cell-based
# RECORDED CONDITIONS: Staphylococcus aureus, MP12; strain MP-12, broth dilution

Check out these entries, answers already filled in.
| MOLECULE | STUDY SYSTEM | REPORTED VALUE |
| --- | --- | --- |
| CO[C@]1(C)C[C@@H](C)CN(C)[C@H]([C@H]2CCN(C(=O)CN(C)C)C2)COC(=O)C(C)(C)C(=O)[C@H](C)[C@H]1O[C@@H]1O[C@H](C)C[C@H](N(C)C)[C@H]1O [Compound 100] | S. aureus MP-12 | > 32 µg/mL |
| CO[C@]1(C)C[C@@H](C)CN(C)[C@H](C2CN(C(=O)[C@H]3CCNC3)C2)COC(=O)C(C)(C)C(=O)[C@H](C)[C@H]1O[C@@H]1O[C@H](C)C[C@H](N(C)C)[C@H]1O [Compound 181] | S. aureus MP-12 | 4 to 32 µg/mL |
| CO[C@]1(C)C[C@@H](C)CN(C)[C@H]([C@H]2CCCN(C(=O)CN(C)C)C2)COC(=O)C(C)(C)C(=O)[C@H](C)[C@H]1O[C@@H]1O[C@H](C)C[C@H](N(C)C)[C@H]1O [Compound 96] | S. aureus MP-12 | > 32 µg/mL |
| CO[C@]1(C)C[C@@H](C)CN(C)[C@H](C2CCN(C)CC2)[C@H](C)OC(=O)C(C)(C)C(=O)[C@H](C)[C@H]1O[C@@H]1O[C@H](C)C[C@H](N(C)C)[C@H]1O [Compound 130] | S. aureus MP-12 | > 32 µg/mL |

Please turn your attention to the following entry.
QUERY: Param item = CO[C@]1(C)C[C@@H](C)CN(C)[C@@H](C2CN(CC(C)C)C2)COC(=O)C(C)(C)C(=O)[C@H](C)[C@H]1O[C@@H]1O[C@H](C)C[C@H](N(C)C)[C@H]1O [Compound 81] ; retrieve measured MIC.
RESULT: > 32 µg/mL

* * *

# Tested on: K. pneumoniae MP-546
# RUN DESCRIPTION: Broth dilution MIC determination (CLSI), K. pneumoniae MP-546
# Type: cell-based
# RECORDED CONDITIONS: Klebsiella pneumoniae, MP546; strain MP-546, broth dilution
For each record, write down the corresponding MIC.

Example entries and their recorded answers appear below.
| COMPOUND | REPORTED VALUE |
| --- | --- |
| CCCN1CCC([C@H]2COC(=O)C(C)(C)C(=O)[C@H](C)[C@@H](O[C@@H]3O[C@H](C)C[C@H](N(C)C)[C@H]3O)[C@](C)(OC)C[C@@H](C)CN2C)CC1 [Compound 63] | < 4 µg/mL |
| CO[C@]1(C)C[C@@H](C)CN[C@H](c2ccccc2)COC(=O)[C@H](C)C(=O)[C@H](C)[C@H]1O[C@@H]1OC(C)CC(N(C)C)C1O (stereo partly shown) [Compound 204] | > 32 µg/mL |
| CCN1CCC[C@@H]([C@@H]2COC(=O)C(C)(C)C(=O)[C@H](C)[C@@H](O[C@@H]3O[C@H](C)C[C@H](N(C)C)[C@H]3O)[C@](C)(OC)C[C@@H](C)CN2C)C1 [Compound 117] | 4 to 32 µg/mL |

Batch request: MIC per item, same order as input.
1. CO[C@]1(C)C[C@@H](C)CN(C)[C@H](C2CCN(C)CC2)[C@H](C)OC(=O)C(C)(C)C(=O)[C@H](C)[C@H]1O[C@@H]1O[C@H](C)C[C@H](N(C)C)[C@H]1O [Compound 130]
2. CO[C@]1(C)C[C@@H](C)CN[C@H](C2CCN(C(C)C)CC2)COC(=O)C(C)(C)C(=O)[C@H](C)[C@H]1O[C@@H]1O[C@H](C)C[C@H](N(C)C)[C@H]1O [Compound 7]
3. CO[C@]1(C)C[C@@H](C)CN(C)[C@H]([C@@H]2CCCN2C)COC(=O)C(C)(C)C(=O)[C@H](C)[C@H]1O[C@@H]1O[C@H](C)C[C@H](N(C)C)[C@H]1O [Compound 106]
4. CO[C@]1(C)C[C@@H](C)CN(CC(C)C)[C@H](C2CN(CC(C)C)C2)COC(=O)C(C)(C)C(=O)[C@H](C)[C@H]1O[C@@H]1O[C@H](C)C[C@H](N(C)C)[C@H]1O [Compound 21]
5. CCCN1CC([C@@H]2[C@@H](C)OC(=O)C(C)(C)C(=O)[C@H](C)[C@@H](O[C@@H]3O[C@H](C)C[C@H](N(C)C)[C@H]3O)[C@](C)(OC)C[C@@H](C)CN2C)C1 [Compound 136]
6. CO[C@]1(C)C[C@@H](C)CN(C)[C@H](C2CCN(C(=O)CNCC(C)C)CC2)COC(=O)C(C)(C)C(=O)[C@H](C)[C@H]1O[C@@H]1O[C@H](C)C[C@H](N(C)C)[C@H]1O [Compound 66]

RESULT:
1: > 32 µg/mL; 2: < 4 µg/mL; 3: > 32 µg/mL; 4: > 32 µg/mL; 5: > 32 µg/mL; 6: 4 to 32 µg/mL
